Value source: patent US20230287598A1

// CXCR1/Parental Ratio lookup, one value per entry
target: CXCR1 (UniProt P25024); test: flow cytometry, CXCR1-U2OS / parental U2OS
Sequence (P25024 whole entry): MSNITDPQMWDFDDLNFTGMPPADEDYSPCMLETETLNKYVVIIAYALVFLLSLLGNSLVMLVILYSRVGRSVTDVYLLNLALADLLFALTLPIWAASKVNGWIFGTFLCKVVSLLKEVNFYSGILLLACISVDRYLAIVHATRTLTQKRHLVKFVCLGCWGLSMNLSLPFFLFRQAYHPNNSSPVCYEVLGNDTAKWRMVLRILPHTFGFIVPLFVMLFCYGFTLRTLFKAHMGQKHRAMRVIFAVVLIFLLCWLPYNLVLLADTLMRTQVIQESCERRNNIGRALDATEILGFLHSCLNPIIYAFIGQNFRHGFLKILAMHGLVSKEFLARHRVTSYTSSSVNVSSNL
Format: numeric value only, no unit, no commentary.

Known results for binders:
>>> reported_value("VH4-34+CDR3-IL8_CDR2 Cow / V1-51 IgG (antibody, part only; not given: V1-51 light chain, part only) VH: QVQLQQWGAGLLKPSETLSLTCAVYGGSFSGYYWSWIRQPPGKGLEWLGSIDTGGNTGYNPSLKSRVTISVDTSKNQFSLKLSSVTAADTAVYYCTSVHQETKKYQSPRSAKELRCQCIKTYSKPFHPKFIKELRVIESGPHCANTEIIVKLSDGRELCLDPKENWVQRVVEKFLKRAENSGSGSYTYNYEWHVDVWGQGLLVTVSSAS")
3.9
>>> reported_value("VH4-34+CDR3-IL8_CDR1 Cow_CDR2 Cow / V1-47 IgG (antibody, part only; not given: V1-47 light chain, part only) VH: QVQLQQWGAGLLKPSETLSLTCTASGFSLSDKAVGWIRQPPGKGLEWLGSIDTGGNTGYNPSLKSRVTISVDTSKNQFSLKLSSVTAADTAVYYCTSVHQETKKYQSPRSAKELRCQCIKTYSKPFHPKFIKELRVIESGPHCANTEIIVKLSDGRELCLDPKENWVQRVVEKFLKRAENSGSGSYTYNYEWHVDVWGQGLLVTVSSAS")
4.6

Summary for this binder, VH4-34+CDR3-IL8_CDR1 G31D,Y32K_CDR2 E50S / V1-51 IgG (antibody, part only; not given: V1-51 light chain, part only) VH: QVQLQQWGAGLLKPSETLSLTCAVYGGSFSDKYWSWIRQPPGKGLEWIGSINHSGSTNYNPSLKSRVTISVDTSKNQFSLKLSSVTAADTAVYYCTSVHQETKKYQSPRSAKELRCQCIKTYSKPFHPKFIKELRVIESGPHCANTEIIVKLSDGRELCLDPKENWVQRVVEKFLKRAENSGSGSYTYNYEWHVDVWGQGLLVTVSSAS : CXCR1/Parental Ratio is 3
